- system: purified human 15-lipoxygenase (Homo sapiens, UniProt P16050)
- Sequence (P16050 whole entry): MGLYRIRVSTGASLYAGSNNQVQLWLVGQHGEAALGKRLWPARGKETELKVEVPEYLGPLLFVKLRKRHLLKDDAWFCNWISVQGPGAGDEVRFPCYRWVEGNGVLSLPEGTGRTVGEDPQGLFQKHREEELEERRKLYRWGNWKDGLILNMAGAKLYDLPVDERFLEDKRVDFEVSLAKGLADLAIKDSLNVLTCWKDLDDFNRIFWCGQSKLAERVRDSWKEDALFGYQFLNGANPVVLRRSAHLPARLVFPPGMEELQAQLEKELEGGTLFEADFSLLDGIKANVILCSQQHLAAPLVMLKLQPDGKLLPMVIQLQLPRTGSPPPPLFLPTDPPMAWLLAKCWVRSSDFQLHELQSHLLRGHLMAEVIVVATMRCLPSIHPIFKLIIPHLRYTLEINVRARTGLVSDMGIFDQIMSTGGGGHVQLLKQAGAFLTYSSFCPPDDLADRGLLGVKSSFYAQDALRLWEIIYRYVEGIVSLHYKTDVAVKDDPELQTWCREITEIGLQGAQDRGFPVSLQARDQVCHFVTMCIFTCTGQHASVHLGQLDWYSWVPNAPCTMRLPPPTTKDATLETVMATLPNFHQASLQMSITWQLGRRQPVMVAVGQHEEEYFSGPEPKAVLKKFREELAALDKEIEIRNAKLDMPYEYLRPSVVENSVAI
- test protocol: 15-lipoxygenase inhibition assay (arachidonic acid oxidation, reverse phase HPLC readout)
- Assay type: biochemical
readout kind: IC50 (nM)

smiles_representation=c1ccc2oc(-c3cc[nH]n3)nc2c1 data_value=224

====

- system: purified human 15-lipoxygenase (Homo sapiens, UniProt P16050)
- test protocol: 15-lipoxygenase inhibition assay (arachidonic acid oxidation, reverse phase HPLC readout)
- Type: biochemical
- condition description: arachidonic acid substrate, room temperature (20-22° C.), PBS pH 7.4; read-out: IC50
readout kind: IC50

compound="Clc1cc(-c2nc3ccccc3o2)n[nH]1 [Example 11, 2-(5-Chloropyrazol-3-yl)benzoxazole]" readout_kind=IC50 data_value="0.033 µM"
compound="Clc1[nH]nc(-c2nc3cccnc3o2)c1Cl [Example 32]" readout_kind=IC50 data_value="0.127 µM"
compound="Fc1cccc2oc(-c3n[nH]c(Cl)c3Cl)nc12 [Example 18]" readout_kind=IC50 data_value="0.035 µM"
compound="Fc1cccc2nc(-c3cc(Cl)[nH]n3)oc12 [Example 15]" readout_kind=IC50 data_value="0.041 µM"
compound="FC(F)(F)c1cnc2oc(-c3n[nH]c(Cl)c3Cl)nc2c1 [Example 33]" readout_kind=IC50 data_value="0.085 µM"
compound="Fc1cccc2oc(-c3cc(Cl)[nH]n3)nc12 [Example 17]" readout_kind=IC50 data_value="0.049 µM"
